- Species on record: Rattus norvegicus
- procedure-details: Displacement of radiolabelled L-T3 from thyroid hormone receptor in intact rat hepatic nuclei relative to T3
// log(%) lookup, one value per entry
// print number alone

>>> observed_result("Cc1c(O)ccc(Oc2c(I)cc(CC(N)C(=O)O)cc2I)c1C (stereo unspecified)")
0.041
>>> observed_result("NC(Cc1cc(I)c(Oc2ccc(O)c(C3CCCCC3)c2)c(I)c1)C(=O)O (stereo unspecified)")
0.146
>>> observed_result("Cc1cc(O)c(I)cc1Oc1c(I)cc(CC(N)C(=O)O)cc1I (stereo unspecified)")
-0.523

Looking up CC(C)c1cc(Oc2c(I)cc(CC(N)C(=O)O)cc2I)cc(C(C)C)c1O (stereo unspecified) , I found its log(%) recorded as 0.146

In plain terms, CCc1cc(Oc2c(I)cc(CC(N)C(=O)O)cc2I)ccc1O (stereo unspecified) has a documented log(%) of 1.32

----------
- Species on record: Rattus norvegicus
- procedure-details: Displacement of radiolabelled L-T3 from thyroid hormone receptor in intact rat hepatic nuclei relative to T3
Measured RBA accompanies every entry in the list below.

Worked set:
>>> observed_result("CC(C)c1cc(Oc2c(Br)cc(CC(N)C(=O)O)cc2Br)ccc1O (stereo unspecified)")
"36%"
>>> observed_result("NC(Cc1cc(I)c(Oc2ccc(O)c(-c3ccccc3)c2)c(I)c1)C(=O)O (stereo unspecified)")
"2%"

RBA reading for Cc1cc(CC(N)C(=O)O)cc(C)c1Oc1ccc(O)c(C(C)C)c1 (stereo unspecified) : 0.7%

The recorded RBA for CC(C)(C)c1cc(Oc2c(I)cc(CC(N)C(=O)O)cc2I)ccc1O (stereo unspecified) is 38.5%

GET /value?item= Cc1cc(Oc2c(I)cc(CC(N)C(=O)O)cc2I)c(C)cc1O (stereo unspecified) &field=RBA returns 0.1%

Note to self: RBA recorded for Cc1cc(O)c(I)cc1Oc1c(I)cc(CC(N)C(=O)O)cc1I (stereo unspecified) was 0.3%

----------
- Species on record: Rattus norvegicus
- procedure-details: Displacement of radiolabelled L-T3 from thyroid hormone receptor in intact rat hepatic nuclei relative to T3
// log(%) lookup, one value per entry
Quick one: just the number, no unit, thanks!

>>> observed_result("NC(Cc1cc(Br)c(Oc2ccc(O)c(I)c2)c(I)c1)C(=O)O (stereo unspecified)")
0.146
>>> observed_result("NC(Cc1cc(I)c(Oc2ccc(O)c3c2CCCC3)c(I)c1)C(=O)O (stereo unspecified)")
0.903
>>> observed_result("NC(Cc1ccc(Oc2ccc(O)c(I)c2)c(I)c1)C(=O)O (stereo unspecified)")
-0.301
>>> observed_result("NC(Cc1cc(I)c(Oc2ccc(O)c(Cl)c2)c(I)c1)C(=O)O (stereo unspecified)")
0.792

Shifting focus to the compound that follows.
Per the records, this compound ( NC(Cc1cc(I)c(Oc2ccc(O)cc2)c(I)c1)C(=O)O (stereo unspecified) ) has log(%) equal to -0.523

----------
- Species: Rattus norvegicus
- procedure-details: Displacement of radiolabelled L-T3 from thyroid hormone receptor in intact rat hepatic nuclei relative to T3
measure-name: log(%)
// keep it numeric: no unit symbol after the value

See these solved cases before continuing.
>>> observed_result("Cc1cc(Oc2c(I)cc(CC(N)C(=O)O)cc2I)ccc1O (stereo unspecified)")
1.13
>>> observed_result("Cc1cccc(Oc2c(I)cc(CC(N)C(=O)O)cc2I)c1 (stereo unspecified)")
-0.699
>>> observed_result("Cc1cc(Oc2c(C)cc(CC(N)C(=O)O)cc2C)cc(C)c1O (stereo unspecified)")
-1
>>> observed_result("CC(C)c1cc(Oc2c(Br)cc(CC(N)C(=O)O)cc2Br)ccc1O (stereo unspecified)")
1.56
>>> observed_result("NC(Cc1cc(I)c(Oc2cc(Cl)c(O)c(Cl)c2)c(I)c1)C(=O)O (stereo unspecified)")
0.653

Looking up NC(Cc1cc(I)c(Oc2ccc(O)c3ccccc23)c(I)c1)C(=O)O (stereo unspecified) , I see its log(%) listed as 0.903

Entry under test: Cc1cc(CC(N)C(=O)O)cc(C)c1Oc1ccc(O)c(C(C)C)c1 (stereo unspecified) . Its log(%) was -0.155

Entry NC(Cc1ccc(Oc2cc(I)c(O)c(I)c2)c(I)c1)C(=O)O (stereo unspecified) [REVERSETRIIODOTHYRONINE] , log(%) reported as -1

Sample Cc1cc(Oc2c(I)cc(CC(N)C(=O)O)cc2I)c(C)cc1O (stereo unspecified) ; log(%) observed: -1

The compound identified as NC(Cc1cc(I)c(Oc2cccc(I)c2)c(I)c1)C(=O)O (stereo unspecified) registered its log(%) at -0.398

Record NC(Cc1cc(I)c(Cc2ccc(O)c(I)c2)c(I)c1)C(=O)O (stereo unspecified) . Reported log(%): 2.4

----------
- Species: Rattus norvegicus
- procedure-details: Displacement of radiolabelled L-T3 from thyroid hormone receptor in intact rat hepatic nuclei relative to T3
List of log(%) values.
Write no unit; give the number alone.

>>> observed_result("Cc1cc(Oc2c(I)cc(CC(N)C(=O)O)cc2I)cc(C)c1O (stereo unspecified)")
0.792
>>> observed_result("CC(C)Cc1cc(Oc2c(I)cc(CC(N)C(=O)O)cc2I)ccc1O (stereo unspecified)")
1.3
>>> observed_result("NC(Cc1cc(I)c(Oc2cccc(C(F)(F)F)c2)c(I)c1)C(=O)O (stereo unspecified)")
-0.699
>>> observed_result("NC(Cc1cc(I)c(Oc2cc(I)c(O)c(I)c2)c(I)c1)C(=O)O (stereo unspecified) [THYROXINE]")
1.1
>>> observed_result("NC(Cc1cc(I)c(Sc2ccc(O)cc2)c(I)c1)C(=O)O (stereo unspecified)")
0.114

Data point: NC(Cc1cc(I)c(Cc2cc(I)c(O)c(I)c2)c(I)c1)C(=O)O (stereo unspecified) ; log(%) = 0.415

----------
- Organism: Rattus norvegicus
- procedure-details: Displacement of radiolabelled L-T3 from thyroid hormone receptor in intact rat hepatic nuclei relative to T3
# maps each entry to its log(%)
Enter a number only.

Here are 5 molecules together with their reported answers.
>>> observed_result("Cc1cc(Oc2c(C)cc(CC(N)C(=O)O)cc2C)ccc1O (stereo unspecified)")
-1
>>> observed_result("NC(Cc1cc(I)c(Oc2ccc(O)c(-c3ccccc3)c2)c(I)c1)C(=O)O (stereo unspecified)")
0.301
>>> observed_result("NC(Cc1cc(I)c(Sc2ccc(O)c(I)c2)c(I)c1)C(=O)O (stereo unspecified)")
2
>>> observed_result("CC(C)c1cc(Oc2c(I)cc(CC(N)C(=O)O)cc2I)ccc1O (stereo unspecified)")
2
>>> observed_result("CC(C)(C)c1cc(Oc2c(I)cc(CC(N)C(=O)O)cc2I)ccc1O (stereo unspecified)")
1.59

Entry under test: Nc1ccc(Oc2c(I)cc(CC(N)C(=O)O)cc2I)cc1 (stereo unspecified) . Its log(%) was -0.119
